For each of the molecules below, state its pIC50.
target system: Recombinant human c-Cbl (aa 47-435) (Homo sapiens, UniProt P22681)
Sequence (P22681 47-435): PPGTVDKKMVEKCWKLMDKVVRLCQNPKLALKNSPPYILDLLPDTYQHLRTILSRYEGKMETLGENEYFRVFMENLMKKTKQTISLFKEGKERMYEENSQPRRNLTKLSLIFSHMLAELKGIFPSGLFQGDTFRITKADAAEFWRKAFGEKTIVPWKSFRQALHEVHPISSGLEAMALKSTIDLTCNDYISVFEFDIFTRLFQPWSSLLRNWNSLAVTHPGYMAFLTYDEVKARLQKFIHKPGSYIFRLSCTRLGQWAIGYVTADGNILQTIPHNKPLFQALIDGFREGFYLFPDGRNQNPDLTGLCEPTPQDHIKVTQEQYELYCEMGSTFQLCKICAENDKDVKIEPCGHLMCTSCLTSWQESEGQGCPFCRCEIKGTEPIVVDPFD
assay info: c-Cbl Biochemical Assay (TR-FRET)
setup conditions: hc-Cbl Biochemical Assay (TR-FRET); read-out: TR-FRET hcCbl IC50
pIC50: −log10 of the molar value.

Below: 7 molecules and their reported pIC50.
[
  {
    "line notation": "COCCNCc1cc(C2CC2)c2oc(-c3cccc(-c4ccc(F)cc4-c4nncn4C)c3)nc2c1",
    "pIC50": "> 6.70"
  },
  {
    "line notation": "Cn1cnnc1-c1cc(F)ccc1-c1cc(-c2nc3cc(CN)cc(F)c3o2)nc(C2CC2)c1",
    "pIC50": "6.00 to 6.70"
  },
  {
    "line notation": "Cn1cnnc1-c1cc(F)ccc1-c1cc(-c2nc3cc(CNCC4CCC4)cc(F)c3o2)cc(C2CC2)c1",
    "pIC50": "> 6.70"
  },
  {
    "line notation": "Cn1cnnc1-c1cc(F)ccc1-c1cccc(-c2cn3cc(CO)ccc3n2)c1",
    "pIC50": "4.30 to 5.00"
  },
  {
    "line notation": "COC1(CNCc2cc(C(F)(F)F)c3oc(-c4cccc(-c5ccc(F)cc5-c5nncn5C)c4)nc3c2)CCC1",
    "pIC50": "> 6.70"
  },
  {
    "line notation": "Cn1cnnc1CC1(c2cccc(-c3cc(C(F)(F)F)c[nH]c3=O)c2)COC1",
    "pIC50": "4.30 to 5.00"
  },
  {
    "line notation": "Cn1cnnc1-c1cc(F)ccc1-c1cccc(-c2nc3cc(NCCC4CCCC4)cc(C(F)(F)F)c3o2)c1",
    "pIC50": "5.00 to 6.00"
  }
]

Next, consider the following molecule.
Challenge: What does the data say about its pIC50? Entry: Cn1cnnc1-c1cc(F)ccc1-c1cccc(-c2nc3cc(CNCC4(C#N)CCCC4)cc(C(F)(F)F)c3[nH]2)c1
Response given: > 6.70

###

For each of the molecules below, state its pIC50.
target system: Recombinant human c-Cbl (aa 47-435) (Homo sapiens)
assay info: c-Cbl Biochemical Assay (TR-FRET)
setup conditions: hc-Cbl Biochemical Assay (TR-FRET); read-out: TR-FRET hcCbl IC50
pIC50: −log10 of the molar value.

Below: 3 molecules and their reported pIC50.
[
  {
    "molecule": "Cn1cnnc1-c1cc(C#N)ccc1-c1cccc(-c2nc3cc(CO)cc(C(F)(F)F)c3o2)c1",
    "parameter": "pIC50",
    "observed result": "6.00 to 6.70"
  },
  {
    "molecule": "Cn1cnnc1-c1cc(F)ccc1-c1cccc(-c2nc3cc(CN[C@H]4CC[C@@H]4O)cc(C(F)(F)F)c3o2)c1 (single isomer, unassigned) [ADG-1]",
    "parameter": "pIC50",
    "observed result": "> 6.70"
  },
  {
    "molecule": "Cn1cnnc1-c1cc(F)ccc1-c1cccc(-c2nc3cc(CNCC4(O)CCC4)cc(C4CC4)c3o2)c1",
    "parameter": "pIC50",
    "observed result": "> 6.70"
  }
]

Batch request: pIC50 for each of the following molecules.
1. Cn1cnnc1-c1cc(F)ccc1-c1cc(-c2nc3cc(CNCC4CCC4)c(F)c(F)c3o2)nc(C2CC2)c1
2. Cn1cnnc1-c1cc(F)ccc1-c1cccc(-c2nc3cc(CN4CCCC[C@@H]4CO)cc(C(F)(F)F)c3o2)c1
3. Cn1cnnc1-c1cc(F)ccc1-c1cccc(-c2nc3cc(CNCC4(C)CCC4)cc(C(F)(F)F)c3o2)c1
4. Cn1cnnc1CC1(c2cccc(-c3nc4cc(CNc5nccn5C)cc(C(F)(F)F)c4[nH]3)c2)COC1
5. Cn1cnnc1-c1cc(F)ccc1-c1cccc(-c2nc3cc(CNCC4(O)CC4)cc(C(F)(F)F)c3o2)c1
6. Cn1cnnc1-c1cc(F)ccc1-c1cccc(-c2nc3cc(CN[C@@H]4CCC[C@@H]4O)cc(C(C)(F)F)c3o2)c1
7. Cn1cnnc1-c1ccccc1-c1cccc(-c2nc3cc(CN(C(=O)OC(C)(C)C)[C@@H]4CCC[C@H]4O)cc(C(F)(F)F)c3o2)c1
8. C[C@H](Cc1nncn1C)c1cccc(-c2nc3cccc(C(F)(F)F)n3n2)c1

Response given:
1. > 6.70
2. 6.00 to 6.70
3. > 6.70
4. 5.00 to 6.00
5. 5.00 to 6.00
6. > 6.70
7. 4.30 to 5.00
8. 4.30 to 5.00

Batch request: pIC50 for each of the following molecules.
1. CN(Cc1cc(C(F)(F)F)c2oc(-c3cccc(-c4ccc(F)cc4-c4nncn4C)c3)nc2c1)CC1(O)CCC1
2. Cn1cnnc1CC1(c2cccc(-c3nc4cccc(C(F)(F)F)c4[nH]3)c2)COC1
3. Cn1cnnc1-c1cc(F)ccc1-c1cccc(-c2nc3cc(CNCC4(O)CCC4)ccc3o2)c1

Response given:
1. > 6.70
2. 4.30 to 5.00
3. > 6.70

Challenge: What does the data say about its pIC50? Entry: COC(=O)c1cc2nc(-c3cc(-c4ccc(F)cc4-c4nncn4C)cc(C4CC4)n3)oc2c(F)c1F
Response given: 5.00 to 6.00

###

target system: Recombinant human c-Cbl (aa 47-435) (Homo sapiens)
Sequence (P22681 47-435): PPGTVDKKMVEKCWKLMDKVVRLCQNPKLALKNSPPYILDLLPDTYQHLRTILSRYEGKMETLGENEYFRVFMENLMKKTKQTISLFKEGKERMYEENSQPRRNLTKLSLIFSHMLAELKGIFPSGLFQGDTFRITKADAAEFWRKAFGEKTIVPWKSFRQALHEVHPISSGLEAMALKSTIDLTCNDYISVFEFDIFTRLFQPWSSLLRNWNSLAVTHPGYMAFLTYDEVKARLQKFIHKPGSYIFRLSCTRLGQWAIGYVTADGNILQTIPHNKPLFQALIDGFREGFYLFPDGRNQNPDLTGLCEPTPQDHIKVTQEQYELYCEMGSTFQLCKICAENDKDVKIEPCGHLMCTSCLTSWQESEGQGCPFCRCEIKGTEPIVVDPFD
assay info: c-Cbl Biochemical Assay (TR-FRET)
setup conditions: hc-Cbl Biochemical Assay (TR-FRET); read-out: TR-FRET hcCbl IC50
For each of the molecules below, state its IC50.

Below: 2 molecules and their reported IC50.
[
  {
    "molecule": "Cn1cnnc1-c1cc(Cl)ccc1-c1cccc(-c2nc3cc(CO)ccc3o2)c1",
    "target system": "Recombinant human c-Cbl (aa 47-435) (Homo sapiens)",
    "parameter": "IC50",
    "observed result": "1000 to 10000 nM"
  },
  {
    "molecule": "Cn1cnnc1CC1(c2cccc(-c3nc4cc(Br)cc(C(F)(F)F)c4o3)c2)COC1",
    "target system": "Recombinant human c-Cbl (aa 47-435) (Homo sapiens)",
    "parameter": "IC50",
    "observed result": "10000 to 50000 nM"
  }
]

Batch request: IC50 for each of the following molecules.
1. Cn1cnnc1-c1cc(F)ccc1-c1cccc(-c2nc3nc(CN[C@@H]4CCC[C@@H]4O)ccc3o2)c1
2. C[C@H]1CCCN(Cc2cc(C(F)(F)F)c3[nH]c(-c4cc(-c5ccc(F)cc5-c5nncn5C)cc(C5CC5)n4)nc3c2)C1

Response given:
1: 200 to 1000 nM; 2: 1000 to 10000 nM

###

For each of the molecules below, state its pIC50.
target system: Recombinant human Cbl-b (aa 36-427) (Homo sapiens)
Sequence (Q13191 36-427): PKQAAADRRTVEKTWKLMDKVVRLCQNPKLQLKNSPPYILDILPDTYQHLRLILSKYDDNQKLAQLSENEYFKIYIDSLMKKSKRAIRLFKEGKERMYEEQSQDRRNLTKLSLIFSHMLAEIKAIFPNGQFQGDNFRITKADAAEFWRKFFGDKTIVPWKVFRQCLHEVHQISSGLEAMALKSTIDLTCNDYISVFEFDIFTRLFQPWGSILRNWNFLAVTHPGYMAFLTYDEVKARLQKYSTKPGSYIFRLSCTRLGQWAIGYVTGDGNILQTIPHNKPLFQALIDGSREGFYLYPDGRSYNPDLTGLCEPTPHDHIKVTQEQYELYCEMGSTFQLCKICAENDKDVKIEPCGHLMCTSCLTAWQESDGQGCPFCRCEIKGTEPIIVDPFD
assay info: Cbl-b Biochemical Assay (TR-FRET)
setup conditions: read-out: TR-FRET hCbl-b IC50
pIC50: −log10 of the molar value.

[
  {
    "line notation": "Cc1cc(CNCC2(F)CCC2)cc2nc(-c3cccc(-c4ccc(F)cc4-c4nncn4C)c3)oc12",
    "pIC50": "> 6.70"
  }
]

Batch request: pIC50 for each of the following molecules.
1. Cn1cnnc1CC1(c2cccc(-c3cc(C(F)(F)F)c[nH]c3=O)c2)COC1
2. Cn1cnnc1-c1cc(F)ccc1-c1cccc(-c2nc3cc(CN[C@@H]4CCC[C@@H]4O)cc(C4CC4)c3o2)c1
3. C[C@H]1CCCN(Cc2cc(C(F)(F)F)c3oc(-c4cccc(-c5ccc(F)cc5-c5nncn5C)c4)nc3c2)C1

Response given:
1: 6.00 to 6.70; 2: > 6.70; 3: > 6.70

Source listed as patent US20250163038A1.
